These entries and their values trace back to paper PMC5540273.

System: IRAK1
Assay Context: concentration: 1 μM, replicates: in singlicate; n = 1;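 further: KINOMEscan kinase panel screen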
Tag: T if measured %Inh is not below 40%, F if it is.

Prompt: // inclusive: %Inh at least 40%? input: Cl.Cl.NCC(NCc1ccc(-c2ccnc3[nH]ccc23)s1)c1ccccc1 (centres unmarked) [GSK1321565]
Response: T

Prompt: For C[C@@H](Oc1cc(-n2cnc3cc(-c4ccnc(NCCS(C)(=O)=O)c4)ccc32)sc1C(N)=O)c1ccccc1Cl [GSK907232] then?
Response: F

Prompt: Now consider COc1cc(Nc2nccc(N3CCC(NC(=O)Nc4cccc(C(C)=O)c4)C3)n2)cc(OC)c1OC (centres unmarked) [GSK1379753] and answer again.
Response: T

Prompt: O=C(Nc1cccc(-c2nn3ncccc3c2-c2ccnc(Nc3ccccc3)n2)c1)c1c(F)cccc1F [GSK198271] ?
Response: F

Prompt: Entry Cc1ccc(C(=O)N2CC[C@@H](O)C2)cc1-n1c(C)cc(OCc2ccc(F)cc2F)c(Br)c1=O please
Response: F

Prompt: Here is the next compound: COC(=O)Nc1nc2cc(Oc3ccc(NC(=O)Nc4cc(C(F)(F)F)ccc4F)cn3)ccc2[nH]1.Cl.Cl [GW681170]
Response: T

Prompt: Now consider Cl.c1ccc(-c2ccc3c(Nc4ccc5[nH]ccc5c4)ccnc3c2)nc1 [GW440138] and answer again.
Response: F

Prompt: Can you handle Nc1ncc(-c2ccc3nccc(-c4ccncc4)c3c2)cc1S(=O)(=O)N1CCOCC1 [GSK1627798] next?
Response: F

Prompt: Would you mind doing O=C(Nc1cccc(-c2nn3ccccc3c2-c2ccnc(Nc3cccc(F)c3)n2)c1)c1c(F)ccc(F)c1Cl [GSK357952] as well?
Response: T

Prompt: Param item: CCS(=O)(=O)c1ccc(OC)c(Nc2nccc(-c3c(-c4cccc(NC(=O)c5c(F)cccc5F)c4)nn4ncccc34)n2)c1 [GSK326180]
Response: F

Prompt: Entry to check: O=C(Nc1n[nH]c2cc(-c3ccoc3)ccc12)C1CC1 [SB-738481]
Response: F

Prompt: Moving on to O=c1[nH]cc(-c2ccc(N3CCOCC3)cc2)c2sc(-c3cn[nH]c3)cc12 [GSK2276055]
Response: F

Prompt: Further, for COc1cccc(C(=O)Nc2cccc(Oc3ccc4nc(NC(=O)C5CC5)cn4n3)c2)c1 ?
Response: F

Prompt: // query: CN(C)Cc1ccc(-c2ccc3c(Nc4ccc(Oc5ccccn5)cc4)ccnc3c2)o1 [GW567148]
Response: F

Prompt: What do you get for O=C(Nc1cccc(-c2nn3ccccc3c2-c2ccnc(Nc3cccc(C(F)(F)F)c3)n2)c1)c1c(F)cccc1F [GSK292658] ?
Response: F

Prompt: What do you get for Cn1cc(-c2[nH]c3cc(NC(=O)[C@H](N)C4CCCCC4)cc4c3c2C=NNC4=O)cn1 ?
Response: T

Prompt: Follow-up item: Nc1n[nH]c2cnc(-c3ccccc3)cc12 [SB-642124]
Response: T

====

Please go through the items and note down their %Inh.
System: DRAK1
Construct: gene STK17A
Assay Context: concentration: 1 μM, replicates: in singlicate; n = 1
Reply with just the number (in %).

Prompt: Bench note: what %Inh did FC(F)(F)c1ccc(/C=C/c2cncnc2Nc2ccc3[nH]c(Cc4ccccc4)nc3c2)cc1 show?
Response: 0

Prompt: Try this compound next: c1ccc(Oc2ccc(Nc3ccnc4cc(-c5ccc(CNCCN6CCOCC6)o5)ccc34)cc2)nc1
Response: 2

Prompt: Repeat for the following compound: CN1CCN(CCCNc2nccc(-c3c(-c4ccc(F)cc4)nn4cc(C(F)(F)F)ccc34)n2)CC1
Response: 33

Prompt: Another compound to check: CCCCc1nn2ncccc2c1-c1ccnc(Nc2ccc(N3CCN(C)CC3)cc2)n1
Response: 5

Prompt: Please answer likewise for Fc1ccc(-c2ncn(C3CCNCC3)c2-c2ccnc(Oc3ccc(-c4ccccc4)cc3)n2)cc1
Response: 0

Prompt: Try CCn1c(-c2nonc2N)nc2c(C#CC(C)(C)O)nc(OC[C@H](N)c3ccccc3)cc21 next.
Response: 13

Prompt: Quick one: O=C(Nc1n[nH]c2nc(-c3ccc(O)cc3)ccc12)C1CC1
Response: 93.4

Prompt: Cc1ccc(C(=O)Nc2ccc(Nc3ccnc4cc(-c5nccs5)ccc34)cc2O)cc1.Cl ?
Response: 5

Prompt: // next record COCCOCCOc1cc2ncc3c4ccc(C#N)cc4[nH]c3c2cc1OC
Response: 100

Prompt: Next record, please: CN(c1ccc(NC(=O)Nc2cc(C(F)(F)F)ccc2F)cc1)c1ccnc(Nc2ccc(S(N)(=O)=O)cc2)n1
Response: 0
